- System: DLD-1 colon
- PROCEDURE DETAILS: NCI tumour cell line growth inhibition, 48 h
MEASURED QUANTITY: TGI

Worked examples follow.
COMPOUND | MEASURED QUANTITY | RESULT
CCCCCCCCCCCc1nnc(N)o1 | TGI | > 100 µM
COC1=C(N)C(=O)c2nc(C)ccc2C1=O | TGI | 5.31 µM

Exam item: Identify measured TGI associated with O=C1CC(O)CC(=O)C1=C(O)CCCCCCCCCCc1ccccc1 (stereo unspecified)
Marked response: > 100 µM

Exam item: Identify measured TGI associated with C=C1C(=O)O[C@@H]2C[C@@H](C)[C@@H]3C=CC(=O)[C@@]3(C)[C@@H](O)[C@H]12
Marked response: 1.49 µM

Exam item: Identify measured TGI associated with NCCCOc1ccc([N+](=O)[O-])cc1Cl
Marked response: > 100 µM

Exam item: Identify measured TGI associated with CN(/N=C/c1cccc2cccnc12)c1ccc([N+](=O)[O-])cc1[N+](=O)[O-]
Marked response: > 100 µM

Cited source for all entries: PubChem BioAssay (NCI)
